subject-of-test: Arachidonate 5-lipoxygenase-activating protein (Homo sapiens)
Sequence (P20292 whole entry): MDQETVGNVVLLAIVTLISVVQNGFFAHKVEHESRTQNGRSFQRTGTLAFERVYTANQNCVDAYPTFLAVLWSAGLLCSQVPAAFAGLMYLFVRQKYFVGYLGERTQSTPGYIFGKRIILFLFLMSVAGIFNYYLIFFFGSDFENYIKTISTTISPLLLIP
assay-details: Inhibition of FLAP in human whole blood assessed as reduction in calcium ionophore-stimulated LTB4 production preincubated for 4 hrs followed by calcium ionophore stimulation and measured after 20 mins by EIA
Format: tissue-based
experimental-endpoint: IC50

>>> measured_result("Cc1cc(-c2ccc3c([C@@H]4CCCC[C@H]4C(=O)Nc4cn(C)nc4C(N)=O)noc3c2)n[nH]1")
"63.1 nM"
>>> measured_result("CC(C)(CNC(=O)[C@@H]1CCCC[C@H]1C(=O)c1ccc(-c2cc[nH]n2)cc1)S(C)(=O)=O")
"126 nM"
>>> measured_result("CC(C)(O)CNC(=O)c1cnc(NC(=O)[C@@H]2CCCC[C@H]2C(=O)c2ccc(-c3cc[nH]n3)cc2)cn1 (racemic)")
"100 nM"
>>> measured_result("Cc1cc(-c2ccc3c([C@@H]4C[C@H]5C[C@H]5C[C@H]4C(=O)Nc4cn(C)nc4C(N)=O)noc3c2)n[nH]1")
"126 nM"
